B1: Tudor domain-containing protein 3, residues 554 to 611; numbered along this chain, Q9H7E2 (parent)
chain: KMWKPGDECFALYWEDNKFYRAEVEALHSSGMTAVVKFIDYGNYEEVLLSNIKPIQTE

- Variants of: B1
- protocol-notes: abundance fitness (aPCA) (normalised: wild type 0, dead -1); higher = more abundant; growth selection in yeast, the domain comes from the species named
- condition-info: Homo sapiens
Note to self: class = bucket of abundance fitness, per range 1 = under -0.5, range 2 = from -0.5 up to -0.1, range 3 = -0.1 and over

N51E    range 2
N51T    range 1
V35L    range 3

## Input Any idea which band S30P is in?
## Output range 2

## Input Which class holds Y44N ?
## Output range 2

Measured values drawn from the Human Domainome abundance scans (Beltran et al. 2025) for this set.
